Attribution: paper PMC5924706

Biological target: GluN1/GluN2D receptors (Rattus norvegicus)
Sequence (Q62645 28-1323, other chains not shown): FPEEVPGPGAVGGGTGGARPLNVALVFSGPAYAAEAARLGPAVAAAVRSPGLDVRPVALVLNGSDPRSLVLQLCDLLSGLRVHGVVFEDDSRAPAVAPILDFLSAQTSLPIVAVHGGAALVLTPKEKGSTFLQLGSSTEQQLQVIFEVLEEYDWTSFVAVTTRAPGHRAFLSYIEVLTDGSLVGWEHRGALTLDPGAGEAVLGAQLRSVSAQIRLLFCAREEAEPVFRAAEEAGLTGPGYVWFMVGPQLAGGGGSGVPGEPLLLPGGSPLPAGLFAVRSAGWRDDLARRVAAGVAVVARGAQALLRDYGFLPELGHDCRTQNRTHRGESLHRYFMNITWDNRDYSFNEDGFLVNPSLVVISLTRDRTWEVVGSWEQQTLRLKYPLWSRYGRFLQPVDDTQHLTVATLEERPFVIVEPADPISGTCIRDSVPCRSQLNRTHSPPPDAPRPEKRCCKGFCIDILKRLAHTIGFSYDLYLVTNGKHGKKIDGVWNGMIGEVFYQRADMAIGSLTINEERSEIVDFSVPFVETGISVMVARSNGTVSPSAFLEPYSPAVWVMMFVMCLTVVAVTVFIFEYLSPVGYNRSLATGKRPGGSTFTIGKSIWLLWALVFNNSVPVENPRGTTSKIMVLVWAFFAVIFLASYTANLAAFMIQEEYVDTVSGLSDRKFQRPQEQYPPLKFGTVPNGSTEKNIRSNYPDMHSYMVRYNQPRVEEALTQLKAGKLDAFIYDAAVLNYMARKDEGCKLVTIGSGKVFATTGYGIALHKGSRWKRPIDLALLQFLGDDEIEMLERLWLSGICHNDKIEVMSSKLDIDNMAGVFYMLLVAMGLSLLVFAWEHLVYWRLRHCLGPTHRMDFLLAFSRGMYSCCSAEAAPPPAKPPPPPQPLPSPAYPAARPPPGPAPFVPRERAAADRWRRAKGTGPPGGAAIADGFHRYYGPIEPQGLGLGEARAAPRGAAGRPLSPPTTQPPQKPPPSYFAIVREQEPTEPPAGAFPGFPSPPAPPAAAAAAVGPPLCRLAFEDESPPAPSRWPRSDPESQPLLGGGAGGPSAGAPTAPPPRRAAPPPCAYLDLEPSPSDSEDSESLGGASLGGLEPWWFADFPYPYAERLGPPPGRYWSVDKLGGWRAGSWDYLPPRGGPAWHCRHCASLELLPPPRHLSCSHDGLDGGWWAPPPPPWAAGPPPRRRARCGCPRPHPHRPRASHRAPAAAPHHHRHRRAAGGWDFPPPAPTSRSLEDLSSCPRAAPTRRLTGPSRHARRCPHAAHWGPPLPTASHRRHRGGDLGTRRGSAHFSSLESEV
Conditions: read-out: agonist EC50 at GluN1/GluN2D; presence of 3 μM NAB-14
Measured parameter: pEC50
Note on pEC50: it is the negative log10 of concentration, concentration in mol/L.

Query pEC50 on GluN1/GluN2D receptors (Rattus norvegicus) for N[C@@H](CCC(=O)O)C(=O)O [glutamate] 6.15

----------
Biological target: GluN1/GluN2D receptors (Rattus norvegicus)
Details: read-out: agonist EC50 at GluN1/GluN2D; absence of NAB-14
Measured parameter: pEC50
Value format note: pEC50 is -log10 of concentration (mol/L); just state the number.

Request the reported pEC50 associated with N[C@@H](CCC(=O)O)C(=O)O [glutamate] 6.21
